system: UO-31; test: NCI tumour cell line growth inhibition, 48 h
Activity calls are given as the source filed them. No stated cut-off is given here; in the data, active = GI50 up to about 1.1 µM and inactive = higher.
Quick reference for GI50 among some compounds
MEASURED_ATTRIBUTE: GI50

* CC(C)(C)OC(=O)N[C@H]1CCN(C2CCCCC2)C1=O | > 100 µM (inactive)
* COc1nc2c(N3CCCC3)nc(N3CCNCC3)nc2nc1NCc1ccccc1 | 1.48 µM (inactive)
* O=C1CC(=O)NC(NN2C(=O)CSC2c2ccccc2)=N1 (configuration not stated) | > 100 µM (inactive)
* CCOP(=O)(OCC)/C(C#N)=C\c1cccc2ccccc12 | 56.9 µM (inactive)
* CC1OC1C(=O)P(=O)(O)O (configuration not stated) | > 100 µM (inactive)
* CC1CC2(OC2C)C(=O)OC2CCN(C)C/C=C(/COC(=O)C1(C)O)C2=O (configuration not stated) | > 100 µM (inactive)
* COc1ccc(/C=C/c2cnc3ccccc3n2)cc1OC | 34.7 µM (inactive)

====

system: KM12; assay: NCI tumour cell line growth inhibition, 48 h
Active and inactive are the calls of the source. Rule as the data show it: active = GI50 up to about 1.1 µM and inactive = higher.
MEASURED_ATTRIBUTE: GI50

• O=C1OC(=O)c2c1c(-c1ccccc1)cn2-c1ccc(Cl)cc1 = 86.1 µM (inactive)
• Cc1cc(N(CCC#N)CCC#N)ccc1/C=C1\N=C(c2cc([N+](=O)[O-])ccc2Cl)N(NC(=O)c2ccc(/N=C\c3ccc(N(CCC#N)S(C)(=O)=O)cc3C)cc2)C1=O = > 100 µM (inactive)
• Cc1c[nH]c(C(=O)O)c1-c1cccn1-c1ccc(Cl)cc1[N+](=O)[O-] = 76.6 µM (inactive)
• CN(C)CC1CCC/C(=C\c2ccc(OC(=O)c3ccc(Cl)cc3)cc2)C1=O (centres undefined) = 1.57 µM (inactive)
• CC(C)N(C(=O)C1(O)c2ccccc2C=Cc2ccccc21)C(C)C = 22.9 µM (inactive)
• CN(C)CC(CO)(CN(C)C)CN(C)C = > 100 µM (inactive)
• Cc1ccc(/C=N/Nc2ccccn2)s1 = > 100 µM (inactive)
• COc1cccc(CCCNC(=O)Cc2cc(OC)c(OC)cc2CO)c1 = > 100 µM (inactive)
• O=C1O[C@H]2C3C4CCC(C4[C@@H]2I)[C@H]13 (some centres undefined) = > 100 µM (inactive)
• COc1ccc(C(=O)c2c3cc(OC)c(OC)c(OC)c3cc[n+]2C)cc1 = 30.4 µM (inactive)
• CCC(CC)n1c(C)nc2c1C(=O)c1ccccc1C2=O = 36.9 µM (inactive)
• CC(=O)c1ccc2c(c1)CC1(C2)Cc2cc3c(cc2C1=O)CCC3 (centres undefined) = 17.5 µM (inactive)
• C=CC1=C(C)c2cc3[nH]c(c4c5nc(cc6[nH]c(cc1n2)c(C=O)c6CC)C(C)=C5C(=O)[C@@H]4C(=O)OC)[C@@H](CCC(=O)O)[C@@H]3C = 21.5 µM (inactive)
• O=C1c2ccccc2C2(c3ccc(Cl)cc3)N[C@H]3CCCC[C@@H]3N12 (some centres undefined) = 85.5 µM (inactive)
• O=c1cc(O)c2ccccc2o1 [4-HYDROXYCOUMARINS] = > 100 µM (inactive)
• Cc1ccc2[nH]c3c4c5ccccc5nc-4c[nH]c3c2c1 = 15.6 µM (inactive)
• Cc1n2nc(N)sc2n[n+]1Cc1ccccc1 = > 100 µM (inactive)
• Cc1ccc(C(=O)C(C)N)cc1 (centres undefined) = > 100 µM (inactive)
• Cc1ccc(C)c2c1NC(=O)/C2=N\Nc1ccccc1[N+](=O)[O-] = > 100 µM (inactive)
• CCCCCCC1NN(C(C)=O)C(CCCCCC)NN1C(C)=O (centres undefined) = > 100 µM (inactive)
• COc1nc2c(N3CCCC3)nc(N3CCNCC3)nc2nc1NCc1ccccc1 = 1.61 µM (inactive)
• CC(C)(C)OC(=O)N1CCC2(CC1)C(=O)NCN2c1ccccc1 = > 100 µM (inactive)
• O=C(c1ccco1)N(C(=S)N1CCN(c2ccccc2)CC1)c1ccccc1 = > 100 µM (inactive)
• Cc1c(Cl)cc(C(C)(C)C)c(O)c1Cc1c(C)c(Cl)cc(C(C)(C)C)c1O = 1.44 µM (inactive)
• CC(=O)OCCn1cnc2nc(Nc3ccccc3)nc(Cl)c21 = 29.2 µM (inactive)
• CC1(C)C(=O)C(C)(C)C12SSC1(S2)C(C)(C)C(=O)C1(C)C = > 100 µM (inactive)
• COc1ccc(/C=C2\Sc3nnc(-c4ccccc4)n3N=C2c2cc(F)c(Cl)cc2Cl)cc1OC = 26.7 µM (inactive)
• N/C(=N\O)N/N=C/c1cc2c(cc1Cl)OCO2 = 29.5 µM (inactive)
• Oc1c2ccccc2c2c3c(cccc13)N=N2 [SP-600125] = 2.62 µM (inactive)
